Exercise: state measured IC50 for each of the compounds provided.
- Subject of test: ZAP-70 (Homo sapiens, UniProt P43403)
- Construct: endogenous in cells
- Assay name: ZAP-70 kinobeads assay
- Test parameters: competition with immobilized aminopyrido-pyrimidine ligand 24 in cell lysate; ZAP-70 detected by dot blot

Solved cases below.
| Compound | IC50 |
| --- | --- |
| CCOc1ccc(Nc2nc(Nc3cc(OC)c(OC)c(OC)c3)ncc2F)c(NS(C)(=O)=O)c1C [Example 168] | 0.1 to 1 µM |
| COc1ccc(Nc2nc(Nc3cc(OC)c(OC)c(OC)c3)ncc2F)c(NS(C)(=O)=O)c1C [Example 163] | 0.1 to 1 µM |
| CN1C(=O)COc2ccc(Nc3ncc(F)c(Nc4ccccc4NS(C)(=O)=O)n3)cc21 [Example 20] | 1 to 10 µM |

Next up:
Entry CS(=O)(=O)Nc1ccccc1Nc1nc(Nc2cccc(OCCCN3CCCCC3)c2)ncc1Cl [Example 134] : IC50 on ZAP-70 (Homo sapiens, UniProt P43403) = < 0.1 µM

----------
Exercise: state measured IC50 for each of the molecules provided.
- Subject of test: ZAP-70 (Homo sapiens)
- Construct: endogenous in cells
- Assay name: ZAP-70 kinobeads assay
- Test parameters: competition with immobilized aminopyrido-pyrimidine ligand 24 in cell lysate; ZAP-70 detected by dot blot
Where a name gives a salt, the structure may show the parent alone.

Solved cases below.
| Molecule | Endpoint result |
| --- | --- |
| COc1ccc(Nc2ncc(Cl)c(Nc3ccccc3NS(C)(=O)=O)n2)cc1OCCN1CCCCC1 | < 100 nM |
| Cc1ccc(C)n1-c1cccc(Nc2ncc(F)c(Nc3ccccc3NS(C)(=O)=O)n2)c1 | 1000 to 10000 nM |
| COc1cc(Nc2ncc(Br)c(Nc3ccccc3NS(C)(=O)=O)n2)cc(OC)c1 | 100 to 1000 nM |
| Cc1nnc(-c2cccc(Nc3ncc(F)c(Nc4ccccc4NS(C)(=O)=O)n3)c2)[nH]1 | 1000 to 10000 nM |

Lab note: each molecule below needs its IC50 filled in.
1. Cc1n[nH]c(-c2cccc(Nc3ncc(Cl)c(Nc4ccccc4NS(C)(=O)=O)n3)c2)n1
2. Cc1nc(-c2ccc(Nc3ncc(F)c(Nc4ccccc4NS(C)(=O)=O)n3)cc2)no1
3. COc1cc(Nc2ncc(Cl)c(Nc3ccccc3NS(C)(=O)=O)n2)cc(OC)c1OC [Example 138, hydrochloride]
4. COc1ccc(Nc2nc(Nc3cc(OC)c(OC)c(OC)c3)ncc2Br)c(NS(C)(=O)=O)c1
5. Cc1nc2cc(Nc3ncc(F)c(Nc4ccccc4NS(C)(=O)=O)n3)ccc2s1

Response:
1: 100 to 1000 nM; 2: 1000 to 10000 nM; 3: < 100 nM; 4: < 100 nM; 5: 1000 to 10000 nM

Lab note: each molecule below needs its IC50 filled in.
1. COc1cc(Nc2ncc(F)c(Nc3cccc(C)c3NS(C)(=O)=O)n2)cc(OCC(C)C)c1OC
2. CS(=O)(=O)Nc1ccccc1Nc1nc(Nc2ccc(C#N)cc2)ncc1Cl
3. COc1cc(Nc2ncc(F)c(Nc3cc(F)c(F)cc3NS(C)(=O)=O)n2)cc(OC)c1OC
4. CN1CCN(CCCOc2ccc(Nc3ncc(Cl)c(Nc4ccccc4NS(C)(=O)=O)n3)cc2)CC1
5. COc1ccc(Nc2ncc(Br)c(Nc3ccccc3NS(C)(=O)=O)n2)cc1
6. CCOc1ccc(Nc2nc(Nc3cc(OC)c(OC)c(OC)c3)ncc2F)c(NS(C)(=O)=O)c1
7. COc1cc(Nc2ncc(F)c(Nc3ccc(C)cc3NS(C)(=O)=O)n2)cc(OC)c1OC

Response:
1: 100 to 1000 nM; 2: 1000 to 10000 nM; 3: 1000 to 10000 nM; 4: < 100 nM; 5: 100 to 1000 nM; 6: < 100 nM; 7: 100 to 1000 nM

----------
Exercise: state measured IC50 for each of the compounds provided.
- Subject of test: ZAP-70 (Homo sapiens, UniProt P43403)
- Construct: endogenous in cells
- Sequence (P43403 1-619): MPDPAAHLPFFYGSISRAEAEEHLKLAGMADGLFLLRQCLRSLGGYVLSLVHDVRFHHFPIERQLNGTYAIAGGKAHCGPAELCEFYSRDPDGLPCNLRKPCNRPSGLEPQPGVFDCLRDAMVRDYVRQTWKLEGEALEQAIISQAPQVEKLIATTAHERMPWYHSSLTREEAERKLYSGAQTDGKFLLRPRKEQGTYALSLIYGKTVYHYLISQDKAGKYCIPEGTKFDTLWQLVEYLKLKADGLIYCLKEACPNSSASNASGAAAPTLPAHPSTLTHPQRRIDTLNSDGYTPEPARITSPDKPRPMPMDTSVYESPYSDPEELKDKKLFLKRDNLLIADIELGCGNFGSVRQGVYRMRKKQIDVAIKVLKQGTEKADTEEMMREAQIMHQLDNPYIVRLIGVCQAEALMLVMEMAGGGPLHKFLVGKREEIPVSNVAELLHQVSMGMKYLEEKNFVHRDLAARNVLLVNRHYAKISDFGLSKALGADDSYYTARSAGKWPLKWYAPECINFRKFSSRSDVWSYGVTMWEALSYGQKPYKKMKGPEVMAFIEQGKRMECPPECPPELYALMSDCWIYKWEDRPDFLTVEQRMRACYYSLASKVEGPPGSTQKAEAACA
- Assay name: ZAP-70 kinobeads assay
- Test parameters: competition with immobilized aminopyrido-pyrimidine ligand 24 in cell lysate; ZAP-70 detected by dot blot
Counter-ions that a name gives are not always drawn.

| Compound | IC50 |
| --- | --- |
| Cc1cccc(Nc2nc(Nc3cccc(OC(C)C)c3)ncc2F)c1NS(C)(=O)=O | 1000 to 10000 nM |
| CN1CCCCC1COc1cccc(Nc2ncc(Cl)c(Nc3ccccc3NS(C)(=O)=O)n2)c1 (centres unmarked) | < 100 nM |
| COc1cc(Nc2ncc(F)c(Nc3cccc(C)c3NS(C)(=O)=O)n2)cc(OC(C)C)c1OC | < 100 nM |

Lab note: each compound below needs its IC50 filled in.
1. CS(=O)(=O)Nc1ccccc1Nc1nc(Nc2cccc(OCCN3CCNCC3)c2)ncc1Cl [Example 133, trifluoroacetate]
2. CS(=O)(=O)Nc1ccccc1Nc1nc(Nc2cccc(-n3cccn3)c2)ncc1F
3. CS(=O)(=O)Nc1ccccc1Nc1nc(Nc2ccc(N3CCCCC3)cc2)ncc1Br

Response:
1: < 100 nM; 2: 1000 to 10000 nM; 3: 100 to 1000 nM

Lab note: each compound below needs its IC50 filled in.
1. CS(=O)(=O)Nc1ccccc1Nc1nc(Nc2cccc(OCCC3CCCN3)c2)ncc1Cl (centres unmarked)
2. CS(=O)(=O)Nc1ccccc1Nc1nc(Nc2cccc(OCCO)c2)ncc1Cl

Response:
1: < 100 nM; 2: < 100 nM

----------
- Subject of test: ZAP-70 (Homo sapiens, UniProt P43403)
- Construct: endogenous in cells
- Assay name: ZAP-70 kinobeads assay
- Test parameters: competition with immobilized aminopyrido-pyrimidine ligand 24 in cell lysate; ZAP-70 detected by dot blot
pIC50: −log10 of the molar value.
Measured attribute: pIC50

Solved cases below.
| Chem smiles | Endpoint result |
| --- | --- |
| COc1ccc(Nc2ncc(F)c(Nc3ccccc3N(C)S(C)(=O)=O)n2)cc1OC | 6.00 to 7.00 |
| COc1cc(Nc2nccc(Nc3ccccc3NS(C)(=O)=O)n2)cc(OC)c1OC | 6.00 to 7.00 |
| CCN(CC)C(=O)c1cccc(Nc2ncc(F)c(Nc3ccccc3NS(C)(=O)=O)n2)c1 | 5.00 to 6.00 |
| COc1cc(Nc2ncc(Cl)c(Nc3cccc(C)c3NS(C)(=O)=O)n2)cc(OC)c1OC | > 7.00 |
| CS(=O)(=O)Nc1ccccc1Nc1nc(Nc2cccc(OCC3CCNCC3)c2)ncc1Cl | > 7.00 |

Lab note: each compound below needs its pIC50 filled in.
1. CS(=O)(=O)Nc1ccccc1Nc1nc(Nc2cccc(C#N)c2)ncc1F
2. COc1cc(Nc2ncc(F)c(Nc3ccccc3NS(=O)(=O)c3cccs3)n2)cc(OC)c1OC

Response:
["5.00 to 6.00", "5.00 to 6.00"]

Per the records, this compound ( CCNC(=O)COc1cccc(Nc2ncc(F)c(Nc3ccccc3NS(C)(=O)=O)n2)c1 ) has pIC50 equal to 6.00 to 7.00

----------
- Subject of test: ZAP-70 (Homo sapiens)
- Construct: endogenous in cells
- Assay name: ZAP-70 kinobeads assay
- Test parameters: competition with immobilized aminopyrido-pyrimidine ligand 24 in cell lysate; ZAP-70 detected by dot blot
pIC50: −log10 of the molar value.
Measured attribute: pIC50

Solved cases below.
| Chem smiles | Endpoint result |
| --- | --- |
| CS(=O)(=O)Nc1ccccc1Nc1nc(Nc2ccc(-n3cncn3)cc2)ncc1Cl | 6.00 to 7.00 |
| CN(c1ccccc1Nc1nc(Nc2ccc(OCCN3CCCCC3)cc2)ncc1F)S(C)(=O)=O | 6.00 to 7.00 |
| CCN(c1ccccc1Nc1nc(Nc2ccc(OCCN3CCCCC3)cc2)ncc1F)S(C)(=O)=O | 6.00 to 7.00 |
| COc1cc(Nc2ncc(F)c(Nc3ccc(OCCCN4CCCCC4)cc3NS(C)(=O)=O)n2)cc(OC)c1OC | 6.00 to 7.00 |

Lab note: each molecule below needs its pIC50 filled in.
1. COc1ccc(Nc2nc(Nc3cc(OC)c(OC)c(OC)c3)ncc2Cl)c(NS(C)(=O)=O)c1
2. COc1cc(Nc2ncc(F)c(Nc3ccc(C)c(C)c3NS(C)(=O)=O)n2)cc(OC)c1OC
3. CS(=O)(=O)Nc1ccccc1Nc1nc(Nc2ccc(OC(F)F)cc2)ncc1F

Response:
["> 7.00", "6.00 to 7.00", "5.00 to 6.00"]

Per the records, this molecule ( CS(=O)(=O)Nc1ccccc1Nc1nc(Nc2cccc(-n3cnnn3)c2)ncc1F ) has pIC50 equal to 5.00 to 6.00
